Origin of values: patent US20210101937A1

tested.on: CD137 (UniProt Q07011 24-255, limits assumed)
Sequence (Q07011 24-255 limits assumed): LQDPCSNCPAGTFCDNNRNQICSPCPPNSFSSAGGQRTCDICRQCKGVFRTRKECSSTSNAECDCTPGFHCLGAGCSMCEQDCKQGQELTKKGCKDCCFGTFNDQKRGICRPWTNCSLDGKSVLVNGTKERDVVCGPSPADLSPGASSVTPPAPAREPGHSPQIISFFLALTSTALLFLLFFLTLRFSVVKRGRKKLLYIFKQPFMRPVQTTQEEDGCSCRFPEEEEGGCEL
assay.summary: cell-based or functional assay
*1 amine or outer side, *2 acyl side, *3 side chain or, on linkers, in order; H or OH if unused. Bridges are numbered along the chain shown (N, C = ends). Roman numbers before positions name the chains, in order. Where no end group is shown, it is not given here. [ ]: non-standard residue; d: D form. The star is where a group is joined. TATA = O=C(CC[*:1])N1CN(C(=O)CC[*:2])CN(C(=O)CC[*:3])C1; 1Nal = N[C@@H](Cc1cccc2ccccc12)C(=O)O; Hyp = O=C(O)[C@@H]1C[C@@H](O)CN1; hArg = N=C(N)NCCCC[C@H](N)C(=O)O; tBuAla = CC(C)(C)C[C@H](N)C(=O)O; Nle = CCCC[C@H](N)C(=O)O; Pent4ynoyl = C#CCCC(=O)*; βAla = NCCC(=O)O
Reported Fold improvement in Emax over BCY10000 on same plate by item:
Field: numeric (fold). Do not append units.

Known results for binders:
{"binder": "BCY12377 ([Ac]C[tBuAla]EE[dK(PYA)]PYCFADPY[Nle]C; Cys residues bonded to TATA scaffold; CP[1Nal][dD]CM[HArg]DWSTP[HyP]WC; Cys residues bonded to TATA scaffold) peptide 1: CPXDCMXDWSTPXWC peptide 2: CXEEKPYCFADPYXC", "units.symbol": "fold", "numeric.result": 1.37}
{"binder": "BCY11618 (linker I:2-I:6-I:16, II:1-II:8-II:15 via TATA; linker II:N-II:5 via Peg5; not fully specified (some residues); also: palmitic acid on dK of chain 1) peptide 1: Pent4ynoyl-[βAla]CP[1Nal][dK]CM[hArg]DWSTP[Hyp]WC peptide 2: Ac-C[tBuAla]PE[dK]PYCFADPY[Nle]CA", "units.symbol": "fold", "numeric.result": 2.59}
{"binder": "BCY12577 (Ac-C[tBuAla]PE[D-Lys(PYA)]PYCFADPY[Nle]CA; Cys residues bonded to TATA scaffold; [Ac]CP[1Nal][dK]CM[HArg]DWSTP[HyP]W[Cysteamine]; reactive groups bonded to TATA scaffold) peptide 1: CPXKCMXDWSTPXX peptide 2: CXPEXPYCFADPYXCA", "units.symbol": "fold", "numeric.result": 1.06}
{"binder": "BCY12020 ([Ac]C[tBuAla]PE[dK]PYCFADPY[Nle]C[Dap(PYA)]; carries Palmitic acid-PEG10 (Example 7); Cys residues bonded to TATA scaffold; [PYA][B-Ala]CP[1Nal][dD]CM[HArg]DWSTP[HyP]WC; Cys residues bonded to TATA scaffold) peptide 1: XCPXDCMXDWSTPXWC peptide 2: CXPEKPYCFADPYXCX", "units.symbol": "fold", "numeric.result": 0.48}

--- query ---
Consider the binder BCY11860 (linker I:2-I:6-I:16, II:1-II:8-II:15 via TATA; linker II:N-II:5 via Peg5; also: two bicycles joined by Peg5 linker, further acylated with a reagent shown only in a drawing) peptide 1: Pent4ynoyl-[βAla]CP[1Nal][dK]CM[hArg]DWSTP[Hyp]WC peptide 2: Ac-C[tBuAla]PE[dK]PYCFADPY[Nle]CA and give its recorded Fold improvement in Emax over BCY10000 on same plate.
1.53
